- method: folding enthalpy; higher = less favourable; fluorescence melt of hairpins on a sequencing array, two-state fit
- condition_details: sodium 0.088 M
value_kind: folding enthalpy

INSERT INTO assay_data (input_sequence, value_reported) VALUES
  ('GCCGTGGGAAACCACGAC (.(((((....))))).)', '-14.8 kcal/mol'),
  ('GAGACCGAAAGGTTCTC ((((((....))).)))', '-22.3 kcal/mol'),
  ('GTGTTAGGAAACTAACGC (.(((((....))))).)', '-21.8 kcal/mol'),
  ('GAGTACGAAAGTACGCTC ((((((....)))..)))', '-16.3 kcal/mol'),
  ('GATCGTAAGGACGATC ((((((....))))))', '-31.8 kcal/mol'),
  ('GATCAATAGCTTGATC ((((((....))))))', '-29.6 kcal/mol'),
  ('ATTCTGAAAAGAAT (((((....)))))', '-12.6 kcal/mol'),
  ('GGGTTCGAAAGAACTCCC ((((((....)))..)))', '-13.5 kcal/mol'),
  ('GACCCAGGAAACCGGGTC (((((.(....).)))))', '-32.8 kcal/mol'),
  ('GCGTTCGAAAGAATGCGC ((((((....)))..)))', '-28.8 kcal/mol'),
  ('GGTTCGGGAAACTGGACC (((.(.(....).).)))', '-29.2 kcal/mol'),
  ('GTTGTTGGAAACAACGAC ((.((((....)))).))', '-18.6 kcal/mol'),
  ('GATCGAAACATCGATC ((((((....))))))', '-39.9 kcal/mol'),
  ('ATATGGAAACATAT (((((....)))))', '-11.4 kcal/mol'),
  ('GAGGAGCGAAAGCTACTC (((.(((....))).)))', '-31.4 kcal/mol'),
  ('GCTGGCGAAAGCCACAGC ((((((....)))..)))', '-13.9 kcal/mol'),
  ('GCGCAGGGAAACCTGCAC (.(((((....))))).)', '-12.7 kcal/mol'),
  ('GATCTTTTACAAGATC ((((((....))))))', '-31.9 kcal/mol'),
  ('GCGCCGTCGAAAGACCGC (((..(((....))))))', '-23.1 kcal/mol'),
  ('GCGTGCGAAAGCATTCGC ((((((....)))..)))', '-16.8 kcal/mol'),
  ('GCCATGGGAAACTATGGC (((((.(....).)))))', '-37.4 kcal/mol'),
  ('GGTTGCGGAAACACAACC (((((.(....).)))))', '-40 kcal/mol'),
  ('GACTACGAAAGTATCGTC ((((((....)))..)))', '-20.4 kcal/mol'),
  ('GAATTGGAAACAATTC ((((((....))))))', '-35.6 kcal/mol'),
  ('GATCATTGGGATGATC ((((((....))))))', '-38.8 kcal/mol'),
  ('GTACTTCCGAAAGGATAC (((..(((....))))))', '-10.3 kcal/mol'),
  ('GCTGGGCGAAAGCCCCGC ((.((((....)))).))', '-16.1 kcal/mol'),
  ('GCGTGGCGAAAGCGAGGC ((.(.((....)).).))', '-16.8 kcal/mol'),
  ('GCCTCGCGAAAGCTGGGC (((..((....))..)))', '-22.2 kcal/mol'),
  ('GGCTAAGGAAACTTGGCC (((.(((....))).)))', '-29.6 kcal/mol'),
  ('GTCCGAGGAAACTCAGAC (((.(((....))).)))', '-21.4 kcal/mol'),
  ('GTGGACGGAAACGTCTGC (..((((....))))..)', '-15.8 kcal/mol'),
  ('GGTGTCGAAAGACAAACC ((((((....)))..)))', '-16.6 kcal/mol'),
  ('GACCGGCGAAAGCCAGTC (((.(((....))).)))', '-20.2 kcal/mol'),
  ('GCGGAACCCGC ((((...))))', '-20.8 kcal/mol'),
  ('GCCAAGCGAAAGCCAGGC (((..((....))..)))', '-22.2 kcal/mol'),
  ('GCTATGCGAAAGCTTGGC ((.(.((....)).).))', '-24.6 kcal/mol'),
  ('CGATATCGGAAACGATCG (((..(((....))))))', '-16.8 kcal/mol'),
  ('GGGAGGCGAAAGCCCCCC (((.(((....))).)))', '-17.2 kcal/mol'),
  ('GTAGCTGCGAAAGCATAC (((..(((....))))))', '-10.1 kcal/mol'),
  ('GCCTTGCGAAAGCGACGC ((.(.((....)).).))', '-10.5 kcal/mol'),
  ('GGCTATCGAAAGATGCC (((.(((....))))))', '-25.3 kcal/mol'),
  ('GGCCAGGGAAACCCGGCC ((((.((....)).))))', '-40.9 kcal/mol'),
  ('GCCAACCGAAAGGTAGGC (((.(((....))).)))', '-39.1 kcal/mol'),
  ('GTCTTTTCGAAAGAAGAC (((..(((....))))))', '-18.7 kcal/mol'),
  ('GGACCCGAAAGGGGCTCC ((((((....)))..)))', '-9.41 kcal/mol'),
  ('GAAATGGGAAACCATTCC (.(((((....))))).)', '-14.8 kcal/mol'),
  ('GCACCCGGAAACGGATGC (((.(((....))).)))', '-25.5 kcal/mol'),
  ('GTGGAGGGAAACCTCTAC ((.((((....)))).))', '-25.7 kcal/mol'),
  ('GCTGACGAAAGTCGTAGC ((((((....)))..)))', '-21.6 kcal/mol');
